# Target Under Test: NA transporter (Rattus norvegicus)
# Construct: from tissue; host or cells: rat hypothalamus synaptosomes (P2 fraction)
# Sequence (Q63380 1-617): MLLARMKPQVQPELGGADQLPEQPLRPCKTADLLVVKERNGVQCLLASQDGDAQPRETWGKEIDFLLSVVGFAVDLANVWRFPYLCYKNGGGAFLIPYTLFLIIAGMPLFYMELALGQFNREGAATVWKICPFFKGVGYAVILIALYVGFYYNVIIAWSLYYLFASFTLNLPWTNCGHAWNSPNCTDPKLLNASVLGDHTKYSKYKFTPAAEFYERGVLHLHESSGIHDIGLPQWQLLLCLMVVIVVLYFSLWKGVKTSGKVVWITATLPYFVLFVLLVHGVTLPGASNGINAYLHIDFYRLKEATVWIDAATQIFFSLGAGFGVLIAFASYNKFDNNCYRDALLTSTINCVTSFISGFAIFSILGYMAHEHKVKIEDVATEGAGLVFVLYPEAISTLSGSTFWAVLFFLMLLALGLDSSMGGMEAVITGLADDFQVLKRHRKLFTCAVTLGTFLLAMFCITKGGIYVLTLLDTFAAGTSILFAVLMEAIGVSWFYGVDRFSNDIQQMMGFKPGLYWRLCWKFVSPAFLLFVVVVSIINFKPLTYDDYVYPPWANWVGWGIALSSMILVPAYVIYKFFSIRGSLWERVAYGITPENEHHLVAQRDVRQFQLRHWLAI
# Assay Notes: Noradrenalin uptake inhibition in rat brain synaptosomes (hypothalamus)
# Type: biochemical
# Description: I. Method for Determining Noradrenalin and 5-HT Uptake Inhibition: […] The particular uptake is measured in a 96-well microtitre plate. […] The 96 samples are then filtered through a Unifilter GF/B microtitre plate (Packard) and washed with 200 mL of incubated buffer using a “Brabdel MPXRI-96T Cell-Harvester”. […] After sealing with a top seal (Packard) and establishing an equilibrium (around 5 hours), radioactivity is determined in a “Trilux 1450 Microbeta” (Wallac). […]
In this section, each of the molecules is paired with its reported inhibition at 10 µM.
Quick reminder: number only, in %, skip the unit.

{"columns": ["Molecule", "Reading Unit", "inhibition at 10 µM"],
 "data": [
  ["Cc1ccc(C(=O)N2CCc3nc(NC(=O)c4cccc5ccccc45)ncc3C2)cc1F", "%", 50],
  ["O=C(Nc1ncc2c(n1)CCN(C(=O)C1CCc3ccccc3C1)C2)c1cccc(F)c1 (stereo not drawn)", "%", 55],
  ["O=C(Nc1ncc2c(n1)CCN(S(=O)(=O)c1cccc(Br)c1)C2)c1cccc(Cl)c1", "%", 70]
]}

Asked: Endpoint output: inhibition at 10 µM of CCc1ccc(C(=O)Nc2ncc3c(n2)CCN(S(=O)(=O)c2ccc4c(c2)CN(C(=O)C(F)(F)F)CC4)C3)cc1 . Value?
Given back: 61

Asked: Next molecule up: O=C(Nc1ncc2c(n1)CCN(C(=O)c1c(F)cccc1Cl)C2)c1cccc(Cl)c1
Given back: 71

Asked: Next molecule up: Cc1cccc(C(=O)Nc2ncc3c(n2)CCN(S(=O)(=O)c2cccc(C)c2)C3)c1
Given back: 52

Asked: Next molecule up: COc1cccc(C(=O)Nc2ncc3c(n2)CCN(C(=O)c2cccc(OC(F)(F)F)c2)C3)c1
Given back: 52

Asked: Next molecule up: O=C(Nc1ncc2c(n1)CCN(C(=O)c1ccc(Cl)c(Cl)c1)C2)c1cccnc1
Given back: 50

Asked: Next molecule up: O=C(Nc1ncc2c(n1)CCN(C(=O)Cc1ccc(Cl)cc1)C2)c1ccc(Cl)c(Cl)c1
Given back: 89
